biological target: slow skeletal troponin (Bos taurus, UniProt G3MYN5+P63315); assay: isothermal titration calorimetry; type: binding

>  <compound>
C#Cc1cnc2nc(O)n(C(CC)CC)c2n1 [CK-2017357]

>  <target.desc>
slow skeletal troponin (Bos taurus, UniProt G3MYN5+P63315)

>  <Kd, µM>
3.8

$$$$

// provenance: paper PMC3296825
